Ref: PubChem BioAssay (NCI)

growth values, listed per item
- Tested on: SF-295 CNS
- assay: NCI-60 one-dose screen, 48 h (100 = growth as untreated, 0 = no growth, -100 = all killed)
- study conditions: 10 µM unless noted
About 83,000 compounds went through this panel and 20% of them were active in at least one assay; those are over-represented in the sample as a whole.
State the answer as a number, implicitly in %.

Exercise: Request - read-out growth | tested on SF-295 CNS | compound C1C[S+]2CC[S+]1CC2
Solution: 99

Exercise: Would you mind doing CCOC(=O)CNC(=O)Sc1ccc(C(C)(C)C)cc1 as well?
Solution: 102

Exercise: Would you mind doing CCCCCCCCCc1ccc(OC(C)=O)cc1 as well?
Solution: 96.6

Exercise: Would you mind doing ClCC(Cl)[C@@H]1CC2C=CC1C2 (stereo partly drawn) as well?
Solution: 91.3

Others:
Exercise: Request - read-out growth | tested on SF-295 CNS | compound CCOP(=O)(OCC)/C(=C\N1C(=O)CC(=O)NC1=S)C(=O)OC
Solution: 102

Exercise: Would you mind doing CCN(CC)c1ccc2nc3ccc(N=Nc4ccc(N(C)C)cc4)cc3[n+](-c3ccccc3)c2c1 as well?
Solution: -82.2

Exercise: Would you mind doing Nc1nc2nnc(-c3ccccc3)c(-c3ccccc3)n2n1 as well?
Solution: 71

Exercise: Would you mind doing O=Cc1ccc(Cl)c(Cl)c1 as well?
Solution: 119
